# maps each entry to its IC50
Biological target: Tryptophan 2,3-dioxygenase (Homo sapiens, UniProt P48775)
Sequence (P48775 whole entry): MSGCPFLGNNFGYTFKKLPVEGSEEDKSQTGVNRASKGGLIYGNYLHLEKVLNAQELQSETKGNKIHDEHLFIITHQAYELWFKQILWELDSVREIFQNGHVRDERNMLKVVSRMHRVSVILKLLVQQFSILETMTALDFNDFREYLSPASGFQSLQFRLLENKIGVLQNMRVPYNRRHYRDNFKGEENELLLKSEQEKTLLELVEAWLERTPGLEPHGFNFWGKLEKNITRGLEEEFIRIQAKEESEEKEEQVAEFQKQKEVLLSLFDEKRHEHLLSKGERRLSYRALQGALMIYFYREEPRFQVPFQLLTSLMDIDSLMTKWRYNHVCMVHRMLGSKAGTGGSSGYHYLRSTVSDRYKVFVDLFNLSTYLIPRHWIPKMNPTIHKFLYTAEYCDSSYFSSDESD
Test: Inhibition of TDO in human HEK293 cells assessed as reduction in kynurenine formation using L-tryptophan as substrate by absorbance based analysis
Assay type: cell-based

| compound | study-target | IC50 |
| --- | --- | --- |
| Cc1coc2c1C(=O)C(=O)c1c-2ccc2c1C(=O)C(O)CC2(C)C (stereo unspecified) | Tryptophan 2,3-dioxygenase (Homo sapiens, UniProt P48775) | > 10 µM |
| Cc1coc2c1C(=O)C(=O)c1c-2ccc2c1CC[C@H](OS(C)(=O)=O)C2(C)C | Tryptophan 2,3-dioxygenase (Homo sapiens, UniProt P48775) | > 10 µM |
| CCN(CC)C(=O)c1coc2c1C(=O)C(=O)c1c-2ccc2c1C=CC(=O)C2(C)C | Tryptophan 2,3-dioxygenase (Homo sapiens, UniProt P48775) | > 10 µM |
| CC1(C)C(=O)C=Cc2c1ccc1c2C(=O)C(=O)c2c(C(=O)O)coc2-1 | Tryptophan 2,3-dioxygenase (Homo sapiens, UniProt P48775) | > 10 µM |
| Cc1coc2c1C(=O)C(=O)c1c-2ccc2c1C=CC(=O)C2(C)C | Tryptophan 2,3-dioxygenase (Homo sapiens, UniProt P48775) | > 10 µM |

Item: Cc1coc2c1C(=O)C(=O)c1c-2ccc2c1C(=O)C(O)=CC2(C)C | System: Tryptophan 2,3-dioxygenase (Homo sapiens, UniProt P48775) | IC50: > 10 µM
